The measured values listed here are drawn from patent US20180186897A1.

MEASURED_TARGET: erythrocytes infected with P. falciparum field isolate 11019
PROTOCOL_DETAILS: flow cytometry, staining of IEs
Measured % parasite recognition by item
The answer is to be given in %; state only the numeric part.

Guide cases for % parasite recognition, answers given:
BINDER | ENDPOINT_UNIT | % parasite recognition
MGD35 (antibody) VH: QVQLQESGPGLVKPSGTLSLTCAVSGASISSINWWSWVRQTPEKGLEWIGQIHHNGSTNYNPSLKSRVAISVDKSKNQFSLKLTSFTAADTAVYYCATASSLKSQRDTNLPRPSLSAEPGTVIPLGSPVTFVCRGPVGVHTFRLERAGRSTYNDTEDVSHPSPSESEARFRIDSVSEGNAGPYRCVYYKSSKWSEESYCLDLLVKTEDVTWARPQPQLDPRACPQGDLRISTDFYYMDVWGKGTTVTVSS VL: AIRMTQSPSSLSASTGDRVTITCRTSQAIGTYLAWYQQNPGKAPNLLIYNASTLQSGVPSRFSASGSGTDFTLTISGLQSDDFVTYFCQHYYNYPPAFGQGTRLEIQ | % | 6.3
MGC28 (antibody) VH: EVQLVESGGGLVQPGGSLRLSCEASGFTFSSYWMTWVRQAPGKGLEWVANINQDGSERYYVDSVKGRFTISRDTVKNSLYLQMNNLRAEDTAVYYCARQRFCSDGSLFHGEDLPRPTISAETGTVISLGSHVTFVCRGPLGVQTFRLERESRSRYSETEDVSQVGPSESEARFRIDSVSEGNAGLYRCIYYKPPKWSEQSDYLELRVKGEDVTWALLTYCGGDRDESDYYMDVWGKGTTVTVSS VL: QTVVTQEPSLTVSPGGTVTLTCASSTGSVTSGSFPNWFQQTPGQAPRSLIYSTTKKHSWTPARFSGSLLGGKAALTVSDTQPEDEAEYYCLLYCGGGQPWVFGGGTKLTVL | % | 30
MGC35 (antibody) VH: EVQLVESGGGLVQPGGSLRLSCEASGFNSRSYWMTWVRQAPGKGLEWVASINQDATEKNYVDSVKGRFTISRDTAKNSLYLQMNSLRAEDTAVYYCARDRFCGGESHLHGQEDLPRPSISAEPGSVIPLGSLVTFVCRGPVGVHTFRLERGWTYNDTEDVSQAGPSESEARFRMDSVREGNAGLYRCIYYKPPKWSEQSAYLELRVKGGDVTWALLTYCGGDGEESDYPMDVWGKGTTVTVSS VL: QTVVTQEPSLTVSPGGTVTLTCASSTGPVTSAYYPNWFQQKPGQAPRSLIYNINKKHSWTPDRFSGSLLGGKAALTLSGVQPEDEADYYCLLSCGGAQPWVFGGGTKLTVQ | % | 3.2
MGD33 (antibody) VH: HVQLQESGPGLVKPSETLSLSCAVTGGSITSSKWWTWVRQGPDKGLEWIGKIYHNGTTNYNPSLKSRVAMSVDKSKNQFSLRLTSVTAADTAVYYCATASPFKSHHRTTEKLPRPSISAEPGTVIPLGSRVTFVCRGPVGVQTFRLERETRSTYNDTEDVSQVSPSESEARFRIDSVSEGYAGPYRCVYYKAPKWSEQSDYLDLLVKGEDVTWALTQPQLDPRACPQGDLRMSTDIYCMDVWGKGTTVTVSS VL: AIRLTQSPSSLSASIGDRVTITCRASQDISTYLAWYQQESGKAPRLLIFAASSLQTGVPSRFSGSGSGTDFTLTISGLQSEDFATYYCQQYYCFPPDFGQGTRLDIK | % | 9.6
MGD56 (antibody) VH: QVQLQESGPGLVKPSGTLSLTCAVSGGSITTNNWWSWVRQTPGKGLEWIGEIFRSGTTNYNPSLKSRVAISLDKSKNQFSLKLTSVTAADTAVYYCATASPFKSQRDTKDLPRPSLSAEPGTVIPLGSHVTFVCRGPVGVQTFRLQRESRSLYNDTEDVSHPSPSESEARFRIDSVSEGNAGPYRCVYYKSSKWSEESDCLELLVKTEDVTWARPQPQLDPRACPRGDLRISTDVYYMDVWGKGTTVTVSS VL: AIRMTQSPSSLSASTGDRVTITCRASQAITSYLAWYRQKPGKAPDLLIYNASTLQSGVPSRFSASGSGTDFALTITGLQSEDFVIYFCQHYYTYPPAFGQGTRLEIK | % | 4.3

Incoming: For the binder MGD23 (antibody) VH: QVQLQESGPGLVKPSGTLSLTCSVSGGSISSNKWWSWVRQSPGKGLEWIGEVYQTGITNYNPSLKGRVTMSVDKSKNQFSLRLTSVTAADTAVYYCATISQLRPQGDTEDLPRPSLSAEPGTVIPLGSHVTFVCRGPAGVETFRLERESRFTYNDTEDVSQASPSESEARFRIDSVSEGNAGPYRCLYYKARKWSDQSDYLELLVKGADVTWALPQSQLAPRACPQGELRISTDVFSMNVWGNGTTVTVSS VL: AVRVTQSPTSLSASTGDRVTITCRTSQYVGNYLDWYQQKPGKAPKLLIHGVSTLQNGVPSRFSGSASGTDFTLNITCLQSEDSATYYCQQYYTSPPDFGQGTRLEIK , what % parasite recognition is on record?
Outgoing: 7.8

Incoming: Quick one: MGC34 (antibody) VH: EVQLVESGGGLVQPGGSLRLSCEASGFTFSSYWMSWVRQAPGKGLEWVANINQDGSQKDYVDSVKGRFTISRDTAKNSLYLQMNSLRAEDTAVYYCARERLCTDDSHMHGEEDLPRPSISAEPGTVIPLGSHVTFVCRGPVGIHTFRLERESRSLYTETEDVTQVSPSESEARFRIESVTEGNAGLYRCVYYKPPKWSEQSDYLELLVKGEDVTRALFTHCGGDGKESDYHMDVWGKGTTVTVSS VL: QTVVTQEPSLTVSPGGTVTLTCASSTGAVTSGYYPSWFHQKPGQPVRALIYSTSKTHSWTPARFSGSLLGGKAALTLSNVQPEDEADYYCLLYYGGPQPWVFGGGTKLTVQ
Outgoing: 34.1
